# Target Entity: EGFR (human), P00533 [T790M]
# Sequence (P00533 whole entry T790M, looked up): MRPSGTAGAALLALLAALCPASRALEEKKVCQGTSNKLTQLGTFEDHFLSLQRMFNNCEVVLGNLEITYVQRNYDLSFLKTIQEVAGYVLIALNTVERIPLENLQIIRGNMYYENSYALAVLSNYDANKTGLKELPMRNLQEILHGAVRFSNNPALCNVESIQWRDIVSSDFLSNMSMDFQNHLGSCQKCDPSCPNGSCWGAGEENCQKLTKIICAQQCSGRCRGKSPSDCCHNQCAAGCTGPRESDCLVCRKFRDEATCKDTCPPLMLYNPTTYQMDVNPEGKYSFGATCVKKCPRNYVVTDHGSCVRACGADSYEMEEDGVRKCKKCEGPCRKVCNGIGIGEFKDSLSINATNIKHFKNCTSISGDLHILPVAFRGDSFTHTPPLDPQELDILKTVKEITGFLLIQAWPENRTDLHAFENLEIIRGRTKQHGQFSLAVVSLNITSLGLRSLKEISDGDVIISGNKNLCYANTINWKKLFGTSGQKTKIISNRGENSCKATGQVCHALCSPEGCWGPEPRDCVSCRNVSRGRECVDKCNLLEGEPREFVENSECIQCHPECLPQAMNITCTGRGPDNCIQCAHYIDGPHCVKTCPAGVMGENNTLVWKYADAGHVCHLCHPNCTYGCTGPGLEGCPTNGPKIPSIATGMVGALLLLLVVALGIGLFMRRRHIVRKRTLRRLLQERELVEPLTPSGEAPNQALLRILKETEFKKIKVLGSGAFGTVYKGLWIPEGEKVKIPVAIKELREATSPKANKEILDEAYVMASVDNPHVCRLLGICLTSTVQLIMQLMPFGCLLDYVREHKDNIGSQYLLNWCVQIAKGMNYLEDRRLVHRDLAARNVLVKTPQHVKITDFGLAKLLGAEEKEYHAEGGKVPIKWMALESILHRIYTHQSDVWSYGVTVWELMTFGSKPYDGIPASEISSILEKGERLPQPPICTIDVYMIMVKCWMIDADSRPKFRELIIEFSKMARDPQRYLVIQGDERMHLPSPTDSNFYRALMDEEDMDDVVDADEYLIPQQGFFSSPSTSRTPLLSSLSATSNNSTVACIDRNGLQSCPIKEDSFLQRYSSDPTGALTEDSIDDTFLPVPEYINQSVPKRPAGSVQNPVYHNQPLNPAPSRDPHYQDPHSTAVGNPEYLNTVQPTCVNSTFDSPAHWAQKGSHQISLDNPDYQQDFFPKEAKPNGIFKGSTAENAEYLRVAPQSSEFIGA
pIC50: −log10 of the molar value.
Rule: pIC50 of 8 or more gives Yes; anything lower gives No.

(Q) Does pIC50 meet or surpass 8 for `C=CC(=O)NCc1cc(-c2cncnc2Nc2ccc(OCc3cccc(F)c3)c(Cl)c2)on1` ?
(A) No

(Q) Does pIC50 meet or surpass 8 for `CN(C)C/C=C/C(=O)NCc1coc(-c2cncnc2Nc2ccc(OCc3ccccn3)c(Cl)c2)n1` ?
(A) No

(Q) Does pIC50 meet or surpass 8 for `C=CC(=O)NCc1coc(-c2c(N)ncnc2Nc2ccc(OCc3ccccn3)c(F)c2)n1` ?
(A) No

(Q) Does pIC50 meet or surpass 8 for `C=CC(=O)NCc1coc(-c2c(N)ncnc2Nc2ccc(F)c(Cl)c2)n1` ?
(A) No

(Q) Does pIC50 meet or surpass 8 for `C=CC(=O)NCc1coc(-c2c(N)ncnc2Nc2ccc(Oc3ccc(C)nc3)c(C)c2)n1` ?
(A) No

(Q) Does pIC50 meet or surpass 8 for `C=C(CN(C)C)C(=O)NCc1coc(-c2c(N)ncnc2Nc2ccc(OCc3ccccn3)c(Cl)c2)n1` ?
(A) Yes

(Q) Does pIC50 meet or surpass 8 for `C=CC(=O)NCc1coc(-c2c(N)ncnc2Nc2ccc(Oc3ccccc3)c(Cl)c2)n1` ?
(A) Yes

(Q) Does pIC50 meet or surpass 8 for `C=CC(=O)NCc1coc(-c2c(NC(C)=O)ncnc2Nc2ccc(Oc3cc(C(F)(F)F)nn3C)c(Cl)c2)n1` ?
(A) No

(Q) Does pIC50 meet or surpass 8 for `C=CC(=O)NCc1coc(-c2c(N)ncnc2Nc2ccc(OCc3ccccn3)cc2F)n1` ?
(A) No

(Q) Does pIC50 meet or surpass 8 for `C=CC(=O)NCc1coc(-c2c(N)ncnc2Nc2ccc(Oc3cccnc3)c(Cl)c2)n1` ?
(A) No

(Q) Does pIC50 meet or surpass 8 for `C=CC(=O)NCc1coc(-c2c(N)ncnc2Nc2ccc(Oc3cc(Cl)ccc3Cl)c(Cl)c2)n1` ?
(A) Yes

(Q) Does pIC50 meet or surpass 8 for `C=C(CN(C)C)C(=O)NCc1coc(-c2cncnc2Nc2ccc(OCc3ccccn3)c(Cl)c2)n1` ?
(A) Yes

(Q) Does pIC50 meet or surpass 8 for `C=CC(=O)NCc1coc(-c2c(N)ncnc2Nc2ccc(OCc3cccc(F)c3)c(Cl)c2)n1` ?
(A) No

(Q) Does pIC50 meet or surpass 8 for `C=CC(=O)NCc1cc(-c2cncnc2Nc2ccc(OCc3ccccn3)c(Cl)c2)on1` ?
(A) No

(Q) Does pIC50 meet or surpass 8 for `CN(C)C/C=C/C(=O)NCc1coc(-c2c(N)ncnc2Nc2ccc(OCc3ccccn3)c(Cl)c2)n1` ?
(A) No

(Q) Does pIC50 meet or surpass 8 for `C=CC(=O)NCc1coc(-c2c(N)ncnc2Nc2ccc(Oc3ccnn3C)c(Cl)c2)n1` ?
(A) No
